- Assayed system: purified recombinant human LDHA protein (Homo sapiens, UniProt P00338)
- Construct: purchased Abcam
- Assay remarks: In vitro LDHA inhibitor activity (NADH fluorescence decrease)
- Assay type: biochemical
- Particulars: synthesized compounds; read-out: LDHA IC50
Readout kind: IC50 (µM)

Smiles repr: O=C(CC(F)(F)F)OCc1ccc2c(c1)OCO2
Unit abbreviation: µM
Numeric value: 452

P = Nc1cccc(C(=O)OCc2ccc3c(c2)OCO3)c1
Q = O=C(OCc1ccc2c(c1)OCO2)c1ccc(F)cc1
R = FC(F)(F)c1ccc(Sc2nc3ccccc3s2)cc1
S = O=C(OCc1ccc2c(c1)OCO2)c1ccc(C(F)(F)F)cc1
Asked: Put the items in order so that reported IC50 rises from first to last. Order the labels as requested and list them.
Given back: S, R, P, Q

====

- Assayed system: purified recombinant human LDHB protein (Homo sapiens, UniProt P07195)
- Construct: purchased Abcam
- Sequence (P07195 whole entry): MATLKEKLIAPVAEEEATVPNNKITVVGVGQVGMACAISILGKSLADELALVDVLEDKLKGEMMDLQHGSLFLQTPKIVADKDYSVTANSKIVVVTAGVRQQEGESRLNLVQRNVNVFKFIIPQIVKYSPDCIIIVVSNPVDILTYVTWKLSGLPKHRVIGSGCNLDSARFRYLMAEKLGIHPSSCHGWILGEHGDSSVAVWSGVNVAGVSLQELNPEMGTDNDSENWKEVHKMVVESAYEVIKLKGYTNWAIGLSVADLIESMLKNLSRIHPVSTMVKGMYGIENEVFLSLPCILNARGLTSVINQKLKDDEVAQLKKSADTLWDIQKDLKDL
- Assay remarks: In vitro LDHB activity assay (NAD+ converted to NADH)
- Assay type: biochemical
- Particulars: synthesized compounds; read-out: LDHB IC50
pIC50: −log10 of the molar value.
# key: entry, value: pIC50

Worked set:
Smiles repr: O=C(OCc1ccc2c(c1)OCO2)c1ccc(F)cc1
Result: < 3.00

Smiles repr: O=C(OCc1ccc2c(c1)OCO2)c1ccccc1
Result: < 3.00

Turning now to a further record.
Asked: Fill blank: measured pIC50 of the compound FC(F)(F)c1ccc(Sc2nc3ccccc3s2)cc1 is ____.
Given back: < 3.00

====

This section presents compounds with their documented IC50 values.
- Assayed system: purified recombinant human LDHA protein (Homo sapiens)
- Construct: purchased Abcam
- Assay remarks: In vitro LDHA inhibitor activity (NADH fluorescence decrease)
- Assay type: biochemical
- Particulars: synthesized compounds; read-out: LDHA IC50

Before answering, review these 2 worked examples.
Smiles repr: O=C(OCc1ccc2c(c1)OCO2)c1ccc(I)cc1
IC50: > 1000 µM
//
Smiles repr: Cc1ccc(C(=O)OCc2ccc3c(c2)OCO3)cc1
IC50: > 1000 µM

Please turn your attention to the following entry.
Asked: Form: Entry = O=C(OCc1ccc2c(c1)OCO2)c1ccc(Br)cc1 | System = purified recombinant human LDHA protein (Homo sapiens) | IC50 = ____
Given back: > 1000 µM
